system: A549; assay: Free payload potency in cell lines (96 h): A549; format: cell-based, human; conditions: A549 (Lung)
parameter.measured: pIC50
Numbers only, as −log10 of the molar value.

Query: Sample "COc1cccc2c1C(=O)c1c(O)c3c(c(O)c1C2=O)C[C@@](O)(C(=O)CO)C[C@@H]3O[C@H]1C[C@H]2[C@H](O[C@@H]3[C@@H](OC)OCCN32)[C@H](C)O1" — what was its pIC50?
Response: 10.89

###

test system: JeKo-1; experiment: Free payload potency in cell lines (96 h): JeKo-1; assay type: cell-based; conditions: JeKo-1 (MCL)
parameter.measured: IC50 (pM)
Give bare numbers, in pM.

Query: Sample COc1cccc2c1C(=O)c1c(O)c3c(c(O)c1C2=O)C[C@@](O)(C(=O)CO)C[C@@H]3O[C@H]1C[C@H]2[C@H](O[C@@H]3[C@@H](OC)OCCN32)[C@H](C)O1 [PNU159682] — what was its IC50?
Response: 44
